I'd appreciate it if you could supply clearance values for the items below.
- assay.remarks: Plasma clearance in Sprague-Dawley rat at 2 mg/kg, iv
- Format: ADME, organism-based
Answers are plain numbers, in mL/min/kg.

Field: example entries. Status: answers known.
[in] What clearance value was documented for this compound, C=CC(=O)Nc1cccc(Nc2nc(Nc3ccc(OCCOC)cc3)ncc2[S+](C)[O-])c1 (racemic) ?
[out] 108

[in] Ok, now C=CC(=O)Nc1cccc(-n2c(=O)n(C)c3cnc(Nc4ccc(Oc5ccnc(C(=O)NC)c5)cc4)nc32)c1
[out] 30

Would you kindly look at the next entry?
[in] What clearance value was documented for this compound, C=CC(=O)Nc1cccc(-n2c(=O)n(C)c3cnc(Nc4ccc(OCCOC)cc4)nc32)c1 ?
[out] 253

---

- target.under.test: Tyrosine-protein kinase BTK (Homo sapiens, UniProt Q06187)
- Sequence (Q06187 whole entry): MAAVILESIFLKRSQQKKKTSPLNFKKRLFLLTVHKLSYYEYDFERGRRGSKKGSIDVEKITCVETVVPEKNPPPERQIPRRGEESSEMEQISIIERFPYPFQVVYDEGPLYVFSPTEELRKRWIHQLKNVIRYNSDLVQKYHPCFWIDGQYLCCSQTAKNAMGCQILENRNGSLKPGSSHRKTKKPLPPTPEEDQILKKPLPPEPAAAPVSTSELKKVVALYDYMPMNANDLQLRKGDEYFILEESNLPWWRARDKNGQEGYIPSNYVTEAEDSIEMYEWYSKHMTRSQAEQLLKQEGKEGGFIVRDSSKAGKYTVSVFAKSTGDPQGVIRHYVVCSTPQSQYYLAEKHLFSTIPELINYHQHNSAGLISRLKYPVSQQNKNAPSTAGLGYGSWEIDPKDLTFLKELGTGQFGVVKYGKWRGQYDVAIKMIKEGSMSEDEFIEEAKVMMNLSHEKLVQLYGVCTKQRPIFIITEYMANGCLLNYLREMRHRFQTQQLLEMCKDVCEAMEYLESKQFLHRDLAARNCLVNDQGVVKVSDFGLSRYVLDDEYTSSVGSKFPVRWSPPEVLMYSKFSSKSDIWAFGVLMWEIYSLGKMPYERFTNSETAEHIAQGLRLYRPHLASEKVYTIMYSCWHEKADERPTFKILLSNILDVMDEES
Decide using IC50 alone. Strictly below 30 nM: T. Equal to or above 30 nM: F.

Below are worked cases with known answers.
[in] Find out if reported IC50 for C=CC(=O)Nc1cccc(-n2c(=O)n(C3CCOCC3)c3cnc(Nc4ccc(OC)nc4)nc32)c1 is less than 30 nM
[out] F

[in] Ok, now C=CC(=O)Nc1cccc(-n2c(=O)n(CCOC)c3cnc(Nc4ccc(OC)nc4)nc32)c1
[out] F

[in] Ok, now C=CC(=O)Nc1cccc(-n2c(=O)n(C)c3cnc(Nc4ccc(OCCOC)cc4)nc32)c1
[out] T

[in] Ok, now C=CC(=O)Nc1cccc(Nc2nc(Nc3ccc(N(C)C)nc3)ncc2[S+](C)[O-])c1 (racemic)
[out] T

Now let's try a different one.
[in] Find out if reported IC50 for C=CC(=O)Nc1cccc(Nc2nc(Nc3ccc(OCCOC)cc3)ncc2[S+](C)[O-])c1 (racemic) is less than 30 nM
[out] T

---

- assay.remarks: Metabolic stability in human plasma assessed as remaining compound at 1 uM after 4 hrs by LC-MS/MS analysis
- Assay type: ADME, cell-free
- conditions: read-out: Stability
I'd appreciate it if you could supply remaining at 4 h, 1 µM values for the items below.
Answers are plain numbers, in %.

[in] What remaining at 4 h, 1 µM value was documented for this compound, C=CC(=O)Nc1cccc(-n2c(=O)n(C)c3cnc(Nc4ccc(OCCOC)cc4)nc32)c1 ?
[out] 42.2

[in] Ok, now C=CC(=O)Nc1cccc(Nc2nc(Nc3ccc(OCCOC)cc3)ncc2[S+](C)[O-])c1 (racemic)
[out] 86.7

Would you kindly look at the next entry?
[in] What remaining at 4 h, 1 µM value was documented for this compound, C=CC(=O)Nc1cccc(-n2c(=O)n(CC3CC3)c3cnc(Nc4ccc(N5CCOCC5)cc4)nc32)c1 ?
[out] 40.8

---

I'd appreciate it if you could supply Cmax values for the items below.
- assay.remarks: Cmax in Sprague-Dawley rat at 2 mg/kg, po
- Type: ADME, organism-based
- Parameters: dose 2 mg/kg, route oral
- conditions: in vivo
Answers are plain numbers, in ng/mL.

Field: example entries. Status: answers known.
[in] What Cmax value was documented for this compound, C=CC(=O)Nc1cccc(-n2c(=O)n(C)c3cnc(Nc4ccc(OCCOC)cc4)nc32)c1 ?
[out] 41

[in] Ok, now C=CC(=O)Nc1cccc(-n2c(=O)n(C)c3cnc(Nc4ccc(Oc5ccnc(C(=O)NC)c5)cc4)nc32)c1
[out] 107

Would you kindly look at the next entry?
[in] What Cmax value was documented for this compound, C=CC(=O)Nc1cccc(Nc2nc(Nc3ccc(OCCOC)cc3)ncc2[S+](C)[O-])c1 (racemic) ?
[out] 55
